This collection of values is drawn from patent US20230340111A1.

# System Tested: T1, human FOLR1 recombinant protein (extracellular domain of human folate receptor alpha) (human, UniProt P15328 25-233)
# T1 construct: Bought recombinant protein (Sino Biological); also called hFOLR1; FR-alpha
# T1 sequence (P15328 25-233): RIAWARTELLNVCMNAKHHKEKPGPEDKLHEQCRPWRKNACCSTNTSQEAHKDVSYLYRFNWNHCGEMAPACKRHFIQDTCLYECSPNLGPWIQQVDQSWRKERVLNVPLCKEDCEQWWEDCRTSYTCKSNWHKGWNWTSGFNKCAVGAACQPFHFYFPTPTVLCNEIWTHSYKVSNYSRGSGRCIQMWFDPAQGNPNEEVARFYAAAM
# Method Description: SPR (Biacore T200), single cycle kinetics, human FOLR1 immobilized on CM5, untagged VHH as analyte, 1:1 fit
Measured Endpoint: koff (s⁻¹)
Answers are plain numbers, in s⁻¹.

Binder	Measured Endpoint	Quantitative Readout
untagged D59E variant of VHH A1 (VHH, also called A1-D59E) VHH: DVQLVESGGGLVQPGGSLRLSCAASESIFSRNHMSWYRQAPGKQRELAAIITSEGNTNYPDSVKGRFTISRDNAKNTVYLQMNSLKPEDTAVYYCNTFGRSVAGFYDYWGQGTQVTVSS	koff	0.00019
untagged E90Q variant of VHH A2 (VHH, also called A2-E90Q) VHH: DVQLVESGGGLVQAGGSLRLSCAADEMKFSNYDLAWYRRAPGKQRELAAIITSGGSTNYPDSVKGRFTISRDNAKNTVYLQMNSLKPEDTAVYYCNALRPWPQFSDYWGQGTQVTVSS	koff	0.0006

API: the following record is the query input.
Challenge: Looking for the measured koff of untagged N64E variant of VHH A1 (VHH, also called A1-N64E) VHH: DVQLVESGGGLVQPGGSLRLSCAASESIFSRNHMSWYRQAPGKQRELAAIITSDGETNYPDSVKGRFTISRDNAKNTVYLQMNSLKPEDTAVYYCNTFGRSVAGFYDYWGQGTQVTVSS , can you help?
Response given: 0.00017
